For each entry below, report its Plant response rating, Blackgrass value.
System: blackgrass (Alopecurus myosuroides)
test_description: Test C pre-/postemergence greenhouse test
Type: in vivo
reported_conditions: Preemergence, 125 g ai/ha; scale 0 to 100

Request: Checklist item: Plant response rating, Blackgrass tested on blackgrass (Alopecurus myosuroides), entry Cc1ccc2ccc(F)cc2c1-c1c(O)c(Cl)nn(C)c1=O , value?
Result: 85

Request: Entry Cc1ccc2ccc(Cl)cc2c1-c1c(O)c(Cl)nn(C)c1=O please
Result: 85

Request: Can you handle Cc1ccc2ccc(C)c(-c3c(O)c(Cl)nn(C)c3=O)c2c1 next?
Result: 90

Request: Param item: Cc1cc(Cl)c2ccccc2c1-c1c(O)c(Cl)nn(C)c1=O
Result: 85
